Measured values drawn from paper PMC4535766 for this set.

IC50: recorded values
Test system: T. b. rhodesiense strain STIB 900, trypomastigotes
Test: In vitro activity against T. b. rhodesiense, serial drug dilution assay
Conditions: Trypanosoma brucei, read-out: IC50 T. b. rhod.
readout: IC50

{"compound": "CN/C(=N/CCSCc1nc[nH]c1C)NC#N [Cimetidine]", "readout": "IC50", "result": "> 396 µM"}
{"compound": "CCC(C)n1ncn(-c2ccc(N3CCN(c4ccc(OCC5COC(Cn6cncn6)(c6ccc(Cl)cc6Cl)O5)cc4)CC3)cc2)c1=O (stereo not shown) [Itraconazole]", "readout": "IC50", "result": "8.53 µM"}
{"compound": "CC(C)(C)NC(=O)[C@@H]1CN(Cc2cccnc2)CCN1C[C@@H](O)C[C@@H](Cc1ccccc1)C(=O)N[C@H]1c2ccccc2C[C@H]1O [Indinavir (Sulfate), Indinavir]", "readout": "IC50", "result": "48.2 µM"}
{"compound": "Nc1nc(N)nc(Nc2ccc([As]3SCC(CO)S3)cc2)n1 (stereo not shown) [Melarsoprol]", "readout": "IC50", "result": "0.01 µM"}

====

Test system: T. b. rhodesiense strain STIB 900, trypomastigotes
Assay: In vitro activity against T. b. rhodesiense, serial drug dilution assay
Settings: in vitro
readout: Activity against T. b. rhodesiense (in words)

{"compound": "N=C(N)c1ccc(OCCCCCOc2ccc(C(=N)N)cc2)cc1 [Pentamidine]", "result": "active"}
{"compound": "CC1CS(=O)(=O)CCN1/N=C/c1ccc([N+](=O)[O-])o1 (stereo not shown) [Nifurtimox]", "result": "active"}

====

Tested on: T. b. rhodesiense strain STIB 900, trypomastigotes
Assay: in vitro
Settings: rat
# label = true (1) if selectivity ratio >= 400 else false (0)

{"molecule": "Fc1ccc([C@@H]2CCNC[C@H]2COc2ccc3c(c2)OCO3)cc1 [Paroxetine]", "assigned.class": "false (0)"}
{"molecule": "CN1CCC(=C2c3ccccc3CCc3sccc32)CC1 [Pizotifen]", "assigned.class": "false (0)"}
{"molecule": "CCN(CC)CCCC(C)Nc1ccnc2cc(Cl)ccc12 (stereo not drawn) [Chloroquine (Diphosphate), Chloroquine]", "assigned.class": "false (0)"}
{"molecule": "C[C@@H]1[C@H](O)[C@@H](C)/C=C/C=C/C=C/C=C/C=C/C=C/C=C/[C@H](O[C@@H]2O[C@H](C)[C@@H](O)[C@H](N)[C@@H]2O)C[C@@H]2O[C@](O)(C[C@@H](O)C[C@@H](O)[C@H](O)CC[C@@H](O)C[C@@H](O)CC(=O)O[C@H]1C)C[C@H](O)[C@H]2C(=O)O [Amphotericin B]", "assigned.class": "false (0)"}
{"molecule": "N=C(N)c1ccc(OCCCCCOc2ccc(C(=N)N)cc2)cc1 [Pentamidine]", "assigned.class": "true (1)"}

====

Tested on: L. donovani strain MHOM-ET-67/L82 amastigotes
Experiment: in vitro
Details: mouse

{"mol": "C[C@@H]1[C@H](O)[C@@H](C)/C=C/C=C/C=C/C=C/C=C/C=C/C=C/[C@H](O[C@@H]2O[C@H](C)[C@@H](O)[C@H](N)[C@@H]2O)C[C@@H]2O[C@](O)(C[C@@H](O)C[C@@H](O)[C@H](O)CC[C@@H](O)C[C@@H](O)CC(=O)O[C@H]1C)C[C@H](O)[C@H]2C(=O)O", "system.tested": "L. donovani strain MHOM-ET-67/L82 amastigotes", "selectivity ratio at 96 h": 95}
